Target: T1, GHRH receptor of human pituitary membranes (human, UniProt Q02643)
T1 sequence: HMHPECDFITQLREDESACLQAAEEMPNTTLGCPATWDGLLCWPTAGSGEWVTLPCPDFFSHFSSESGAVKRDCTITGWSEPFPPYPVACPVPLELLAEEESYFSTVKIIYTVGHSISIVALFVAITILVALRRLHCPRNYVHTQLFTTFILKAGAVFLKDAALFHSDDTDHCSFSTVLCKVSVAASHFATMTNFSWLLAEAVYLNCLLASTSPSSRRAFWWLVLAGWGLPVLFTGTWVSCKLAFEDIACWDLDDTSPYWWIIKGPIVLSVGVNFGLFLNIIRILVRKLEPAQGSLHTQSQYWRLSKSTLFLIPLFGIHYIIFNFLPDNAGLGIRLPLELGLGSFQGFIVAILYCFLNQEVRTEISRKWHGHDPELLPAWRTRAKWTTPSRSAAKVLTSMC
Experiment: competition vs 125I-[His1,Nle27]hGHRH(1-32)NH2, human pituitary membranes
Non-standard residues stand in square brackets, D forms with d. No end group written: not given here. *: point of attachment. NMeY = CN[C@@H](Cc1ccc(O)cc1)C(=O)O; Agmatine = N=C(N)NCCCCN*; Nle = CCCC[C@H](N)C(=O)O; Orn = NCCC[C@H](N)C(=O)O; Abu = CC[C@H](N)C(=O)O
Property Measured: relative affinity (binding potency) compared to hGHRH(1-29)

Known relative affinity (binding potency) compared to hGHRH(1-29) results, listed for orientation:
Binder	Result
[NMeY]ADAIFTQSYR[Orn]VL[Abu]QLSAR[Orn]LLQDI[Nle]DR-NHMe [P-27406 [N-Me-Tyr^1, Gln^8, Orn^12, Abu^15, Orn^21, Nle^27, Asp^28]hGHRH(1-29)NH-CH3]	8.22 vs hGHRH(1-29)NH2=1
[NMeY][dA]DAIFTQSYR[Orn]VL[Abu]QLSAR[Orn]LLQDI[Nle]DR-NHEt [P-28420 [N-Me-Tyr^1, D-Ala^2, Gln^8, Orn^12, Abu^15, Orn^21, Nle^27, Asp^28]hGHRH(1-29)NH-CH2-CH3]	2.83 vs hGHRH(1-29)NH2=1

Now for another entry.
# query: relative affinity (binding potency) compared to hGHRH(1-29) of entry [NMeY][dA]DAIFTNSYR[Orn]VL[Abu]QLSAR[Orn]LLQDI[Nle]D[Agmatine] [P-20367 [N-Me-Tyr^1, D-Ala^2, Orn^12, Abu^15, Orn^21, Nle^27, Asp^28, Agm^29]hGHRH(1-29)NH2]
7.01 vs hGHRH(1-29)NH2=1
